Give measured pEC50 for each item. Keep answers brief.
target: TYK2 (Homo sapiens); construct: JAK1 (aa 850-1154) and TYK2 (aa 871-1187) are expressed with an N-terminally fused GST-tag; GST (N); test: JAK kinase assay (HTRF, phosphorylation of synthetic peptide), TYK2; conditions: catalytic domain, ATP at Km (13 μM); read-out: TYK2 kinase inhibitory activity (EC50)
Sequence (P29597 871-1187): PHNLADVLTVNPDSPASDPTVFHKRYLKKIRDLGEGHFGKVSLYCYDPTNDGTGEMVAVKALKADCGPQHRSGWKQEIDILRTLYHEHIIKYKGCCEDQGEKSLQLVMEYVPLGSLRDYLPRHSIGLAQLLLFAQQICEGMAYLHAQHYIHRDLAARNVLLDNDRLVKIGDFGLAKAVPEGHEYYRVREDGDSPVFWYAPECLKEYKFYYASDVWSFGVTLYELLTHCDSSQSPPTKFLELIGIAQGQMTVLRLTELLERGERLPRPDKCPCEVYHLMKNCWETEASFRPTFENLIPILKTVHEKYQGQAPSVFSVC
pEC50: −log10 of the molar value.

Some compounds with recorded pEC50:
CC#CCN(CCc1ccccc1)S(=O)(=O)N1CCN(c2ncnc3[nH]ccc23)CC12CC2 [Example 23]: < 6.30
CN(Cc1ccccc1C#N)S(=O)(=O)N1CCN(c2ncnc3[nH]ccc23)CC12CC2 [Example 14]: > 7.00

For each of the compounds below, state pEC50.
1. CN(C[C@H]1CCCN1C(=O)CCC#N)S(=O)(=O)N1CCN(c2ncnc3[nH]ccc23)CC12CC2 [Example 187]
2. CN(CC1CCN(C(=O)CCC#N)CC1)S(=O)(=O)N1CCN(c2ncnc3[nH]ccc23)CC12CC2 [Example 152]
3. N#CCCNS(=O)(=O)N1CCN(c2ncnc3[nH]ccc23)CC12CC2 [Int 40]
4. CC(C)N(CCO)S(=O)(=O)N1CCN(c2ncnc3[nH]ccc23)CC12CC2 [Example 97]
5. O=S(=O)(N(CCc1ccccc1)CC1CCCCC1)N1CCN(c2ncnc3[nH]ccc23)CC12CC2 [Example 8]
6. COCCN(C1CCC1)S(=O)(=O)N1CCN(c2ncnc3[nH]ccc23)CC12CC2 [Example 103]

Result:
["6.30 to 7.00", "< 6.30", "< 6.30", "< 6.30", "< 6.30", "6.30 to 7.00"]
